- targetDesc: α4β1 (Homo sapiens, UniProt P05556+P13612)
- Construct: Ramos Cell Adhesion Assay (α4β1 Mediated Adhesion/VCAM-1); endogenous in cells; host or cells: Ramos cells
- Sequence (P13612 34-1032): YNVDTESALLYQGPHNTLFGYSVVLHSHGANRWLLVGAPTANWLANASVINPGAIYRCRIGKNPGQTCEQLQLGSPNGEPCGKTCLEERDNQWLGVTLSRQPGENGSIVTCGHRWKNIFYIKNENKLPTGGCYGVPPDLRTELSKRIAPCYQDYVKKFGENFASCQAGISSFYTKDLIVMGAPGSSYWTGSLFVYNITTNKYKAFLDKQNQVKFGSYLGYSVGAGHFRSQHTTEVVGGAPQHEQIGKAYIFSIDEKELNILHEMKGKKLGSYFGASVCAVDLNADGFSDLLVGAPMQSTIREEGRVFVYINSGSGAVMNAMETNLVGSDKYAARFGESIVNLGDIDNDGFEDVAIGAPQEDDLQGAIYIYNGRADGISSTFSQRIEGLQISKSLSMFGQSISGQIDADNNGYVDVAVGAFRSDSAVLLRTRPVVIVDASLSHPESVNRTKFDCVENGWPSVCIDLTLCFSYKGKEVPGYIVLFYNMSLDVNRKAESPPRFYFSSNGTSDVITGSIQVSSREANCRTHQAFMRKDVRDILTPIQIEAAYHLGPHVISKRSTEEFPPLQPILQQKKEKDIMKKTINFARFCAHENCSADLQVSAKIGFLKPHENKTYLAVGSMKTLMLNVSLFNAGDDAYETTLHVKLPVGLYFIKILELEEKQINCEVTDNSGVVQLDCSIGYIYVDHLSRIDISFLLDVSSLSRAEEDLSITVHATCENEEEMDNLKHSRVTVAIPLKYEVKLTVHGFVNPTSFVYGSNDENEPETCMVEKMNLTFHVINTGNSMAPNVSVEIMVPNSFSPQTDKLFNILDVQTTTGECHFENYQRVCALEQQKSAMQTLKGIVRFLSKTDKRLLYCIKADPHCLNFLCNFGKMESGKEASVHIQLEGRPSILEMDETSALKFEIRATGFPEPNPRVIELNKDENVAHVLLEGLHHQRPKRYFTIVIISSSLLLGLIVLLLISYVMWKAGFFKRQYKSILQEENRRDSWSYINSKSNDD
- Sequence (P05556 21-798): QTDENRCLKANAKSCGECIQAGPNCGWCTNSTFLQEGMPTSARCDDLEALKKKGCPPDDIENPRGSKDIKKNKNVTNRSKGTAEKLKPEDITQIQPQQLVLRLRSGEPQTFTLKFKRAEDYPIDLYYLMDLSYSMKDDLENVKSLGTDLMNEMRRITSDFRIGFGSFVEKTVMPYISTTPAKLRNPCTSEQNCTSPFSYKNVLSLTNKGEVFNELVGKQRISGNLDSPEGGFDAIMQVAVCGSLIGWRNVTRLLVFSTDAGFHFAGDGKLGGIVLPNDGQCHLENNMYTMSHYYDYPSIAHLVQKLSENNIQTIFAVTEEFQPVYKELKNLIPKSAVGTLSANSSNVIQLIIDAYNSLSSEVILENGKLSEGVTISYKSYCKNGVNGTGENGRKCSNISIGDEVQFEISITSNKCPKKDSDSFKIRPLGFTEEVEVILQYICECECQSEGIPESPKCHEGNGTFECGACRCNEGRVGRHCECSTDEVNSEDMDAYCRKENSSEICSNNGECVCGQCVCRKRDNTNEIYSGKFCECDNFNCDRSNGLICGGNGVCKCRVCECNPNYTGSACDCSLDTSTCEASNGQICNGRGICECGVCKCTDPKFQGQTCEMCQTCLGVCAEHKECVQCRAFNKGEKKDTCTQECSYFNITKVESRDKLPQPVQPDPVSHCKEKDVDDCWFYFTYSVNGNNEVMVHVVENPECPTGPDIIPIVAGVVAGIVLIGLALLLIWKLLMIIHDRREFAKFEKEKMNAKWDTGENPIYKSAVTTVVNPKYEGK
- assayComment: Ramos Cell Adhesion Assay (α4β1 Mediated Adhesion/VCAM-1)
- Assay type: cell-based
- protocolConditions: Ramos cell adhesion to hVCAM-1; read-out: α4β1 IC50
measurementKind: IC50 (nM)

Worked examples, 5 molecules total:
>  <molecule>
Cn1ncc(N2CCOCC2)c(-c2ccc(C[C@H](NC(=O)c3c(Cl)cccc3Cl)C(=O)O)cc2)c1=O [Cpd 20]

>  <IC50 / nM>
484

$$$$
>  <molecule>
Cn1ncc(OC(F)F)c(-c2ccc(C[C@H](NC(=O)c3c(Cl)cccc3Cl)C(=O)O)cc2)c1=O [Cpd 112]

>  <IC50 / nM>
289

$$$$
>  <molecule>
CC(C)Oc1cnn(CCO)c(=O)c1-c1ccc(C[C@H](NC(=O)c2c(Cl)cccc2Cl)C(=O)O)cc1 [Cpd 24]

>  <IC50 / nM>
249

$$$$
>  <molecule>
COc1cnn(C)c(=O)c1-c1ccc(C[C@H](NC(=O)[C@H](NC2CCCCC2)C(C)C)C(=O)O)cc1 [Cpd 28]

>  <IC50 / nM>
2620

$$$$
>  <molecule>
Cn1ncc(OCC2CC2)c(-c2ccc(C[C@H](NC(=O)c3c(Cl)cccc3Cl)C(=O)O)cc2)c1=O [Cpd 86]

>  <IC50 / nM>
212

$$$$

(1) O=C(N[C@@H](Cc1ccc(-c2c(OCc3cccnc3)cnn(CCO)c2=O)cc1)C(=O)O)c1c(Cl)cccc1Cl [Cpd 30]
(2) COc1cnn(C)c(=O)c1-c1ccc(C[C@H](NC(=O)[C@H](C(C)C)N(C)C(=O)OC(C)(C)C)C(=O)O)cc1 [Cpd 48]
Record comparison, field IC50: mark the lower of 1 and 2 . Indicate which entry you chose by stating its label.
1
